Listing of recorded switch fluorescence ratio by entry.
- Tested on: ATP;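 also: ATP exposure 15 min at 22 °C before imaging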
- assay_summary: switch fluorescence ratio, 500 uM ATP over buffer (Cy3 cluster intensity, sum of 5 cycles each) (fold (ratio)); higher = stronger signal-on switching upon ATP binding; sequences stand for … in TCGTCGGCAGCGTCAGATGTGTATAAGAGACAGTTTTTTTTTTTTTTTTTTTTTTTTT…TC
- test_conditions: aptamer strand: ATP DNA aptamer (quencher-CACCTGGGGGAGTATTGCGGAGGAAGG + anchor), 100 nM annealed; ATP concentration: 500 uM
Give your answer as a number; write no unit.

The examples below pair each entry with its known result.
sequence_content	measured_on	switch fluorescence ratio
TGGGTCTCTT	ATP	1.01
GCCAGTTTGG	ATP	0.992
TTGATGGGAC	ATP	1.12
GGGTGCGGGC	ATP	1.04
CTCAGTTTTA	ATP	1
TAGTGATCTT	ATP	0.997

Name the recorded switch fluorescence ratio for AGGCGAGTTA .
0.994

What value of measured switch fluorescence ratio is listed for GATCAGATGT ?
0.958

Which switch fluorescence ratio value belongs to TAATTGGTGG ?
1.01

Tell me the measured switch fluorescence ratio of CGTTGGTCAG , please.
1.02

# input sequence: TTTCGGCATT ; wanted: its switch fluorescence ratio
2.4

Give its switch fluorescence ratio value. Item: AGTGCGTGGG
1

----------
- System: ATP;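 also: ATP exposure 15 min at 22 °C before imaging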
- assay_summary: switch fluorescence ratio, 500 uM ATP over buffer (Cy3 cluster intensity, sum of 5 cycles each) (fold (ratio)); higher = stronger signal-on switching upon ATP binding; sequences stand for … in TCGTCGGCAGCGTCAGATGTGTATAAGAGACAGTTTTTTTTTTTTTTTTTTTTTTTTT…TC
- test_conditions: aptamer strand: ATP DNA aptamer (quencher-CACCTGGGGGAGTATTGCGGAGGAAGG + anchor), 100 nM annealed; ATP concentration: 500 uM
# maps each entry to its switch fluorescence ratio
Reply briefly: the number, and no unit.

sequence_content	switch fluorescence ratio
GGTATAATTA	0.964
ACAAAACTC	1.27
ATTGTGCGTA	0.971
TGATCCTTGG	1.03

Data request, read-out switch fluorescence ratio, for TAGAAAGTGC
1.02

What does the data say about its switch fluorescence ratio? Entry: GGGGGGGGC
0.989

Consider the sequence TTTTTTGTGT and give its measured switch fluorescence ratio.
0.991

----------
- Test system: ATP;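 also: ATP exposure 15 min at 22 °C before imaging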
- assay_summary: switch fluorescence ratio, 500 uM ATP over buffer (Cy3 cluster intensity, sum of 5 cycles each) (fold (ratio)); higher = stronger signal-on switching upon ATP binding; sequences stand for … in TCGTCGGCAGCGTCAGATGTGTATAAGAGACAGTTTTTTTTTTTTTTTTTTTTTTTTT…TC
- test_conditions: aptamer strand: ATP DNA aptamer (quencher-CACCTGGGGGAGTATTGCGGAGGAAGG + anchor), 100 nM annealed; ATP concentration: 500 uM
Assign condition met whenever switch fluorescence ratio does not fall below 1; assign condition not met whenever it does.

sequence_content	class_assignment
TATTTGAAA	condition met
AACTCTTCTT	condition met
TGGTTGTTTG	condition not met
CTTGTATTGG	condition met
TATGTTTATT	condition met
AAAAAACGTA	condition met
GGGGGTCGGA	condition met
AATGCAGGTA	condition met

Decide: is the reported value of switch fluorescence ratio for GAGCGGGGGG equal to or greater than 1?
condition not met

Hi team, for GTATTTTGCG , is the recorded switch fluorescence ratio at or above 1?
condition met

----------
Item-by-item account of switch fluorescence ratio
- Test system: ATP;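 also: ATP exposure 15 min at 22 °C before imaging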
- assay_summary: switch fluorescence ratio, 500 uM ATP over buffer (Cy3 cluster intensity, sum of 5 cycles each) (fold (ratio)); higher = stronger signal-on switching upon ATP binding; sequences stand for … in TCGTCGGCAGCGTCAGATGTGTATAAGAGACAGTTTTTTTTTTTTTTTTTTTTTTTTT…TC
- test_conditions: aptamer strand: ATP DNA aptamer (quencher-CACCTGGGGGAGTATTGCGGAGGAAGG + anchor), 100 nM annealed; ATP concentration: 500 uM

Field: example entries. Status: answers known.
sequence_content	measured_on	switch fluorescence ratio
TTGGGGACAT	ATP	0.98
AGCGTTGATG	ATP	1.01
GGACTCTCGG	ATP	0.967

Please look up its switch fluorescence ratio: CGGGGTATTC
0.964

Record request: switch fluorescence ratio value, item GTTGCAGGGT
1

Please look up its switch fluorescence ratio: TTTCGTCTGG
0.955

Need switch fluorescence ratio, item TAGTTAAATC
1

Quick one: switch fluorescence ratio for TGAGATAGCT ?
0.998

I would be grateful if you could share the reported switch fluorescence ratio for AAAGGGGCGG .
1.02

# switch fluorescence ratio lookup, item GGGGCACGGC
1.01

What switch fluorescence ratio value was documented for this sequence, TCGAAATATT ?
1.55

switch fluorescence ratio lookup needed for TGGACTTGGT , thanks.
0.97

Requested read-out: switch fluorescence ratio. Entry: GCGGTTTCAT
0.998

Give the measured switch fluorescence ratio of GATGATTTTG .
0.979

What does the data say about its switch fluorescence ratio? Entry: TCTGATTGGT
0.995

Fill blank: measured switch fluorescence ratio of the sequence TAGGGACGGG is ____.
1.07

If you can, please state the reported switch fluorescence ratio value of GCCTTAGCCG .
0.972

Endpoint output: switch fluorescence ratio of AAGGTTAGGT . Value?
1.03

Quick one: switch fluorescence ratio for GCAGCGGACT ?
1.29

// query switch fluorescence ratio value for entry ACCTCGGACC
1.09

----------
Measured switch fluorescence ratio of individual entries
- Tested on: ATP;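 also: ATP exposure 15 min at 22 °C before imaging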
- assay_summary: switch fluorescence ratio, 500 uM ATP over buffer (Cy3 cluster intensity, sum of 5 cycles each) (fold (ratio)); higher = stronger signal-on switching upon ATP binding; sequences stand for … in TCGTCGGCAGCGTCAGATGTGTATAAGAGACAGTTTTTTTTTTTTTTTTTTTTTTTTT…TC
- test_conditions: aptamer strand: ATP DNA aptamer (quencher-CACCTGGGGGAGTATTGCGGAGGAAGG + anchor), 100 nM annealed; ATP concentration: 500 uM
API note: the answer field is a bare number with no unit suffix.

sequence_content	switch fluorescence ratio
TTTGCCCTTT	1.24
GGCGCTGAGT	1.02
AGTAGCTCTC	1.02

API: value(readout=switch fluorescence ratio, system=ATP) for record ACACGCCCAA;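 also: ATP exposure 15 min at 22 °C before imaging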
1.12

Short answer please: switch fluorescence ratio, ATP, entry GTAGAGAGGG
0.992

Identify the measured switch fluorescence ratio of ATCCTCGTTG for ATP.
1.02

Record lookup: for ATP, what switch fluorescence ratio belongs to TAGACTCGGT ?
0.993

Lab request: please report switch fluorescence ratio under test system ATP for TATCTGGGTT;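 also: ATP exposure 15 min at 22 °C before imaging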
1.06

What switch fluorescence ratio appears in the records for this sequence with ATP? CGGGGCACCA
0.99

Request - read-out switch fluorescence ratio | tested on ATP | sequence ATCGTGATGG;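 also: ATP exposure 15 min at 22 °C before imaging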
1.03

Identify the measured switch fluorescence ratio of TTTGTGTAGT for ATP.
0.986

----------
- Test system: ATP;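 also: ATP exposure 15 min at 22 °C before imaging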
- assay_summary: switch fluorescence ratio, 500 uM ATP over buffer (Cy3 cluster intensity, sum of 5 cycles each) (fold (ratio)); higher = stronger signal-on switching upon ATP binding; sequences stand for … in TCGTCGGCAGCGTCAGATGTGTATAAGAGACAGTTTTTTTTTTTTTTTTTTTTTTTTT…TC
- test_conditions: aptamer strand: ATP DNA aptamer (quencher-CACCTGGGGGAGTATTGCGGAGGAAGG + anchor), 100 nM annealed; ATP concentration: 500 uM
Decision: switch fluorescence ratio >= 1 yields criterion met, all other cases yield criterion not met.

Below, 5 sequences whose answers are already recorded.
sequence_content	measured_on	class_assignment
TTGGGCAACG	ATP	criterion met
TAACGGTATA	ATP	criterion met
AAGTGTTAG	ATP	criterion not met
ATATTTTAGC	ATP	criterion met
ATTCCTCGAC	ATP	criterion met

Determine whether this sequence has switch fluorescence ratio no lower than 1: TTCATGATTT
criterion met

Does the sequence TTTGGCTCTG have recorded switch fluorescence ratio that is 1 or more?
criterion met

Does the sequence AAACCTGGCT have recorded switch fluorescence ratio that is 1 or more?
criterion met

Quick check, switch fluorescence ratio >= 1? ATTGGTAGTT
criterion not met

Textbook exercise: given the entry AGGTTCAAAG , state whether its switch fluorescence ratio is greater than or equal to 1.
criterion not met

----------
- Test system: ATP;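 also: ATP exposure 15 min at 22 °C before imaging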
- assay_summary: switch fluorescence ratio, 500 uM ATP over buffer (Cy3 cluster intensity, sum of 5 cycles each) (fold (ratio)); higher = stronger signal-on switching upon ATP binding; sequences stand for … in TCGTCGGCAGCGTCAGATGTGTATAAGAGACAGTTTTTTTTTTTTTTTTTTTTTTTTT…TC
- test_conditions: aptamer strand: ATP DNA aptamer (quencher-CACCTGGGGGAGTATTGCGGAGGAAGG + anchor), 100 nM annealed; ATP concentration: 500 uM
Measured switch fluorescence ratio of individual entries
Answer using only a numeral; do not append any unit.

Some solved entries appear below for comparison.
sequence_content	switch fluorescence ratio
TTTTTTCCGA	1.02
GTGGTGAGGT	0.966
ATGTTCGGCG	1.01
TGCGGATATA	1.04
TTGAGTAGGT	0.987
CGTATTTGAG	1
CTTATGAAGG	0.989
GTTAGTATAT	1
AGGATGGGGG	0.997
AAGTGGGGTT	1.02

switch fluorescence ratio for GTTTAAATAG ?
1.04

Look at this sequence and give its reported switch fluorescence ratio. TGGGCAGGGT
1.02

Which switch fluorescence ratio is listed for CCACCGGGGA ?
1.85

Requested field: switch fluorescence ratio. Item: TTCGTAGACT
0.991

Could you share which switch fluorescence ratio value was measured for TTAGTCACGC ?
1.03

Item under review: GGGGAACTGG . Reported switch fluorescence ratio?
1.01

Looking for the measured switch fluorescence ratio of CAACTGGTAT , can you help?
1.17

Requested read-out: switch fluorescence ratio. Entry: GTTAATATAA
0.997

# input sequence: CGGTAGGGTT ; wanted: its switch fluorescence ratio
0.978

May I ask what switch fluorescence ratio has been recorded for GAGGCTGGGT ?
0.988

Any idea what its switch fluorescence ratio is? The sequence is TATGTTAGAT
1

Param item = AGCTTAAGGG ; retrieve measured switch fluorescence ratio.
0.967
